B1: library; numbered along this chain (parent)
chain: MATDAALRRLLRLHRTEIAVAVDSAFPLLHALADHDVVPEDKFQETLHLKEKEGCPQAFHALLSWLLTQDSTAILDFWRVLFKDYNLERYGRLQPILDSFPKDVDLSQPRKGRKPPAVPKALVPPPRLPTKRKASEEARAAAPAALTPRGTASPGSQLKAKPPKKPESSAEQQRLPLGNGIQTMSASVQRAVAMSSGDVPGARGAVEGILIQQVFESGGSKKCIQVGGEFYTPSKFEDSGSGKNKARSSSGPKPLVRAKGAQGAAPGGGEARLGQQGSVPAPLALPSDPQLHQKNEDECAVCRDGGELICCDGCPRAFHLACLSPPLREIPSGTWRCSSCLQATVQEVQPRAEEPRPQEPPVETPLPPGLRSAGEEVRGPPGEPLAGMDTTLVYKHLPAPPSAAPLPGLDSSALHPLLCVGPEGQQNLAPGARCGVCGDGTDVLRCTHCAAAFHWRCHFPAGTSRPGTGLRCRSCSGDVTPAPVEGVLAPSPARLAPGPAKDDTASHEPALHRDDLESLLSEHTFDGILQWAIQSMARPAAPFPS

Variants of: B1
TEST NAME: AIRE transcriptional activation functional score (insulin promoter-GFP; nonsense median 0, synonymous median 1) (normalised score); higher = higher AIRE activity (more reporter activation)
CONDITION CONTEXT: with insulin promoter-GFP reporter in HEK293
QUANTITY: AIRE transcriptional activation functional score

{"MUTATIONS": "A404E", "READOUT VALUE": 0.954}
{"MUTATIONS": "H319R", "READOUT VALUE": 1.03}
{"MUTATIONS": "T72D", "READOUT VALUE": 2.22}
{"MUTATIONS": "F453T", "READOUT VALUE": 0.101}
{"MUTATIONS": "K221E", "READOUT VALUE": 1.1}
{"MUTATIONS": "C314D", "READOUT VALUE": 0.933}
{"MUTATIONS": "E383S", "READOUT VALUE": 1.01}
{"MUTATIONS": "P360K", "READOUT VALUE": 0.715}
{"MUTATIONS": "F318P", "READOUT VALUE": 1.21}
{"MUTATIONS": "L75M", "READOUT VALUE": 0.71}
{"MUTATIONS": "T68I", "READOUT VALUE": -0.358}
{"MUTATIONS": "A141P", "READOUT VALUE": 0.97}
{"MUTATIONS": "K50H", "READOUT VALUE": 0.46}
{"MUTATIONS": "H292K", "READOUT VALUE": 0.992}
{"MUTATIONS": "D297L", "READOUT VALUE": 0.697}
{"MUTATIONS": "G178R", "READOUT VALUE": 1.49}
{"MUTATIONS": "E137G", "READOUT VALUE": 0.593}
{"MUTATIONS": "A537C", "READOUT VALUE": 0.622}
{"MUTATIONS": "S506G", "READOUT VALUE": 0.799}
{"MUTATIONS": "H396W", "READOUT VALUE": 1.28}
{"MUTATIONS": "R12A", "READOUT VALUE": -0.914}
{"MUTATIONS": "E53C", "READOUT VALUE": 1.45}
